# Procedure Summary: hESC survival regulators, cell-based (AID 493140);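 further: cells exposed to compounds for four days before counting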
# Run Parameters: human embryonic stem cell survival screen; active compounds read high
Property: survival
Reply briefly: the number, and no unit.

Known survival results, listed for orientation:
- Compound: "C/C=C1/C[C@@H](C)[C@](O)(CO)C(=O)OCC2=CCN3CC[C@@H](OC1=O)[C@@H]23"
  Value Measured: 3.83
- Compound: "c1ccc2nc(N3CCNCC3)ccc2c1"
  Value Measured: 8.75
- Compound: "COc1cc2c(cc1O)CC1c3c(cc(O)c(OC)c3-2)CCN1C (configuration not stated)"
  Value Measured: 4.08
- Compound: "CC1=C2[C@H]3OC(=O)[C@@H](C)[C@@H]3CC[C@@]2(C)C=CC1=O"
  Value Measured: 2.25
- Compound: "CNCC(O)c1ccc(O)cc1 (configuration not stated)"
  Value Measured: 2.92
- Compound: "CCC1(C)CC(=O)NC(=O)C1"
  Value Measured: 3.92

Value of measured survival for the entry C[C@]12CCC3[C@@H](CC[C@@H]4C[C@H](O)CC[C@]34C)[C@@H]1CCC2=O (some centres not stated) : 4.25

Form: compound = COc1cc(C(=O)OC2CC3CCC(C2)N3C)ccc1O (configuration not stated) ; survival = 1.67

# compound Cc1c2ccncc2c(C)c2c1[nH]c1ccccc12 ; its survival = 10.4

Query CC(C)(C)c1cc(C=C(C#N)C#N)cc(C(C)(C)C)c1O yields survival of 76

Sample CC(C)(C)NCC(O)c1cc(Cl)c(N)c(Cl)c1 (configuration not stated) ; survival observed: 11.5

# survival of Fc1ccc(C(OCCN2CCN(CCCc3ccccc3)CC2)c2ccc(F)cc2)cc1 = 2.08

CC[C@H]1CN2CCc3cc(OC)c(OC)cc3[C@@H]2C[C@@H]1C[C@H]1NCCc2cc(O)c(OC)cc21 has a reported survival of 0.333

The reported survival of the compound NCC(CC(=O)O)c1ccc(Cl)cc1 (configuration not stated) was 9.17

# survival (compound: N[C@@H]1C[C@H]1c1ccccc1 ) is 34.7

COc1ccc(C[C@@H]2NC[C@@H](O)[C@@H]2OC(C)=O)cc1 has a reported survival of 0.25

Measured survival, CCN1C[C@]2(C)CC[C@H](OC)[C@]34C2[C@H](OC(C)=O)C2(OCO[C@@]25CC(OC)C2C[C@]3(O)C5[C@H]2OC)[C@@H]14 (some centres not stated) : 5

get_value(item= O=c1oc2ccccc2c(O)c1Cc1c(O)c2ccccc2oc1=O , readout=survival) returns 4.42

CN1C2CC(=O)CC1C(O)C2 (configuration not stated) has a reported survival of 4.08

// field: survival; key: C[C@H]1C(=O)O[C@@H]2CCN3CC=C(COC(=O)[C@](C)(O)[C@]1(C)O)[C@H]23 ; value = 1.5

The reported survival of the compound CC(=O)c1c(O)c(C)c(O)c(Cc2c(O)c3c(c(C(=O)/C=C/c4ccccc4)c2O)OC(C)(C)C=C3)c1O was 142

Form field survival, entry CC1CC[C@]2(NC1)O[C@H]1C[C@H]3[C@@H]4CC[C@H]5C[C@@H](O)CC[C@]5(C)[C@H]4CC[C@]3(C)[C@H]1[C@@H]2C (some centres not stated) : 5.67
